- Tgt: human PCSK9 / human LDLR EGFa domain (Homo sapiens, UniProt Q8NBP7)
- Sequence (Q8NBP7 153-692): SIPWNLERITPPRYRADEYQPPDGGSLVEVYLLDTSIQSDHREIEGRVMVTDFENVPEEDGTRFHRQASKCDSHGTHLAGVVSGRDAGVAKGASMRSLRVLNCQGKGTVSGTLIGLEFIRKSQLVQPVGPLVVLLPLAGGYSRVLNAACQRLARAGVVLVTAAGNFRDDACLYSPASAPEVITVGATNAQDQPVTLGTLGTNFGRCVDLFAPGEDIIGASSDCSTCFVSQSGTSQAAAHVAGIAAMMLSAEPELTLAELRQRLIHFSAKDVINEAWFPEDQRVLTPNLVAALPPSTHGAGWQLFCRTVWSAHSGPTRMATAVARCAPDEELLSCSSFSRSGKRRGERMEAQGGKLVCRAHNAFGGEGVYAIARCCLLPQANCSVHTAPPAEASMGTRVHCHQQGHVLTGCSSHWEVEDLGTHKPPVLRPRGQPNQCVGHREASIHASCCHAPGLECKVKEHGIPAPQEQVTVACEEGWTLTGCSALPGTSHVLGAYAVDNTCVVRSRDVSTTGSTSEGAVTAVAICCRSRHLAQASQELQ
- Assay Notes: TR-FRET assay of inhibition of the PCSK9-LDLR protein-protein interaction
- Reported Conditions: 20 nM human PCSK9, 20 nM human LDLR EGFa domain, 2 hours room temperature
- Method: A time-resolved fluorescence resonance energy (TR-FRET) assay was used to measure inhibition of the PCSK9-LDLR protein-protein interaction. […] Compounds were tested in dose-response and concentrations giving half-maximal inhibition calculated using a 4-parameter fit equation.
Numbered stars: 1 amine (or outer) side, 2 acyl side, 3 side chain; on linkers, the order of the positions; unused ones are H or OH. Bridge positions count the residues as written; N and C are the ends. Square brackets hold non-standard residues; d marks the D form. Peptide text beside a SMILES is read from it. Phe(4-COOH) = N[C@@H](Cc1ccc(C(=O)O)cc1)C(=O)O; Trp(5-F) = N[C@@H](Cc1c[nH]c2ccc(F)cc12)C(=O)O; X1 = O=C(CCSCc1cccc(CSCCN[*:1])c1)[*:2]; X5 = O=C(CN(CCCCC=[*:3])[*:1])[*:2]; X4 = O=C(CN(CCCC=[*:3])[*:1])[*:2]; Tle = CC(C)(C)[C@H](N)C(=O)O; αMeP = C[C@@]1(C(=O)O)CCCN1; Ahx = NCCCCCC(=O)O
Quantity Kind: IC50

[[record]]
compound = "C[C@@H]1NC(=O)[C@@H]2CCCN2C(=O)[C@H](Cc2c[nH]c3ccc(F)cc23)NC(=O)[C@H](Cc2c[nH]c3ccc(F)cc23)NC(=O)[C@@H](C)NC(=O)[C@H](C(C)(C)C)NC(=O)CCSCc2cccc(c2)CSCCNC(=O)[C@@H]2CCCN2C(=O)[C@H](Cc2ccc(O)cc2)NC1=O [Compound 095] (cyclo(AYP[X1][Tle][dA][Trp(5-F)][Trp(5-F)]P))"
quantity_kind = "IC50"
observed_measurement = "0.1 to 1 µM"

[[record]]
compound = "COc1ccc(C[C@@H]2NC(=O)[C@H](C)NC(=O)CN3CCCC/C=C\\CCCN(CC(=O)N[C@@H](Cc4c[nH]c5ccc(F)cc45)C3=O)C(=O)CNC(=O)CCCCCNC(=O)c3ccc(cc3)C[C@@H](C(N)=O)NC(=O)[C@]3(C)CCCN3C2=O)cc1 [Compound 122] ([Ahx]G[X4][Trp(5-F)][X5]AY(Me)[αMeP][Phe(4-COOH)]-NH2; staple (Z) 3-5; lactam N-9)"
quantity_kind = "IC50"
observed_measurement = "1 to 12.1 µM"


###

- Tgt: human PCSK9 / human LDLR EGFa domain (Homo sapiens)
- Assay Notes: TR-FRET assay of inhibition of the PCSK9-LDLR protein-protein interaction
- Reported Conditions: 20 nM human PCSK9, 20 nM human LDLR EGFa domain, 2 hours room temperature
Numbered stars: 1 amine (or outer) side, 2 acyl side, 3 side chain; on linkers, the order of the positions; unused ones are H or OH. Bridge positions count the residues as written; N and C are the ends. Square brackets hold non-standard residues; d marks the D form. Peptide text beside a SMILES is read from it. ξ: configuration not given here. Trp(5-F) = N[C@@H](Cc1c[nH]c2ccc(F)cc12)C(=O)O; X9 = O=C(CCCCCSCc1ccc(CSCCN[*:1])cc1)[*:2]; Phe(4-Cl) = N[C@@H](Cc1ccc(Cl)cc1)C(=O)O; X1 = O=C(CCSCc1cccc(CSCCN[*:1])c1)[*:2]; 1Nal = N[C@@H](Cc1cccc2ccccc12)C(=O)O; mXylylene = c1cc(C[*:1])cc(C[*:2])c1; NMeF = CN[C@@H](Cc1ccccc1)C(=O)O; Nva = CCC[C@H](N)C(=O)O; ξP = O=C(O)C1CCCN1; Mpa = O=C(O)CCS
Quick reference for IC50 among some molecules
Quantity Kind: IC50

[[record]]
molecule = "C[C@@H]1NC(=O)CCSCc2cccc(c2)CSCCNC(=O)[C@@H]2CCCN2C(=O)[C@H](Cc2ccccc2)N(C)C(=O)[C@H](C)NC(=O)[C@@H]2CCCN2C(=O)[C@H](Cc2c[nH]c3ccc(F)cc23)NC(=O)[C@H](Cc2cccc3ccccc23)NC(=O)[C@@H](C)NC1=O [Compound 067] (cyclo([1Nal][Trp(5-F)]PA[NMeF]P[X1]A[dA]))"
observed_measurement = "1 to 12.1 µM"

[[record]]
molecule = "COc1ccc(C[C@@H]2NC(=O)[C@H](Cc3c[nH]c4ccc(F)cc34)NC(=O)CNC(=O)[C@H](CCCCN)NC(=O)CCSCc3cccc(c3)CSC[C@@H](C(N)=O)NC(=O)[C@@H]3CCCN3C(=O)[C@H](Cc3ccc(O)cc3)NC(=O)[C@H](C)NC(=O)[C@@H]3CCCN3C2=O)cc1 [Compound 018] ([Mpa]KG[Trp(5-F)]Y(Me)PAYPC-NH2; linker 1-10 via mXylylene)"
observed_measurement = "0.1 to 1 µM"

[[record]]
molecule = "C[C@@H]1NC(=O)[C@@H]2CCCN2C(=O)[C@H](Cc2c[nH]c3ccc(F)cc23)NC(=O)[C@H](Cc2c[nH]c3ccc(F)cc23)NC(=O)[C@@H](C)NC(=O)[C@@H]2CCCN2C(=O)CCSCc2cccc(c2)CSCCNC(=O)[C@@H]2CCCN2C(=O)[C@H](Cc2ccccc2)NC1=O [Compound 057] (cyclo(AFP[X1]P[dA][Trp(5-F)][Trp(5-F)]P))"
observed_measurement = "0.1 to 1 µM"

[[record]]
molecule = "C[C@@H]1NC(=O)[C@@H]2CCCN2C(=O)[C@H](Cc2ccc(Cl)cc2)NC(=O)[C@H](Cc2c[nH]c3ccc(F)cc23)NC(=O)CNC(=O)[C@H](CCCCN)NC(=O)CCSCc2cccc(c2)CSC[C@@H](C(N)=O)NC(=O)[C@@H]2CCCN2C(=O)[C@H](Cc2ccc(O)cc2)NC1=O [Compound 004] ([Mpa]KG[Trp(5-F)][Phe(4-Cl)]PAYPC-NH2; linker 1-10 via mXylylene)"
observed_measurement = "1 to 12.1 µM"

[[record]]
molecule = "CCC[C@@H]1NC(=O)CCSCc2cccc(c2)CSCCNC(=O)[C@@H]2CCCN2C(=O)[C@H](Cc2ccc(O)cc2)NC(=O)[C@H](C)NC(=O)[C@@H]2CCCN2C(=O)[C@H](Cc2c[nH]c3ccc(F)cc23)NC(=O)[C@H](Cc2c[nH]c3ccc(F)cc23)NC(=O)[C@@H](C)NC1=O [Compound 093] (cyclo(AYP[X1][Nva][dA][Trp(5-F)][Trp(5-F)]P))"
observed_measurement = "1 to 12.1 µM"

[[record]]
molecule = "C[C@@H]1NC(=O)[C@@H]2CCCN2C(=O)[C@H](Cc2c[nH]c3ccc(F)cc23)NC(=O)[C@H](Cc2c[nH]c3ccc(F)cc23)NC(=O)CNC(=O)CCCCCSCc2ccc(cc2)CSCCNC(=O)C2CCCN2C(=O)[C@H](Cc2ccc(O)cc2)NC1=O (stereo partly drawn) [Compound 099] (cyclo(AY[ξP][X9]G[Trp(5-F)][Trp(5-F)]P))"
observed_measurement = "1 to 12.1 µM"

